# Tested on: Pseudomonas aeruginosa ATCC 9027
# assay-text: Minimal inhibition concentration (MIC), microdilution method
# Type: cell-based
# experimental-setup: Pseudomonas aeruginosa, ATCC9027; Mueller-Hinton II Bouillon, 25 mM MES-buffer, 37° C., no growth after 24 h and 72 h; read-out: MIC [A to D] Pseudomonas aeruginosa
measured-quantity: MIC

Hi! Can you tell me MIC for each of these compounds?
1. CCCCCCC(O)CO (stereo not shown)
2. COc1ccc(C(=O)O)cc1
3. CCCCC(O)CO (stereo not shown)
4. CCCCCCCCC(O)CO (stereo not shown)
5. CC(=O)CCC(=O)O
6. OCc1ccccc1 [Benzyl Alcohol, reference compound]
7. OCCc1ccccc1 [2-Phenylethanol, reference compound]

1. 1000 to 5000 µg/mL
2. 1000 to 5000 µg/mL
3. 5000 to 10000 µg/mL
4. 1000 to 5000 µg/mL
5. 1000 to 5000 µg/mL
6. 5000 to 10000 µg/mL
7. 5000 to 10000 µg/mL
